Values were extracted from patent US20230357447A1.

Recorded measurements of CD28 scFv signal in presence of CD28, one per entry
# assayed system: T1, anti-CD28 scFv (VH-linker 1-VL) (biotinylated (site not stated))
# T1 construct: Captured as biotinylated scFv on neutravidin coated plates in the phage ELISA
# T1 sequence (scFv, as listed by the source): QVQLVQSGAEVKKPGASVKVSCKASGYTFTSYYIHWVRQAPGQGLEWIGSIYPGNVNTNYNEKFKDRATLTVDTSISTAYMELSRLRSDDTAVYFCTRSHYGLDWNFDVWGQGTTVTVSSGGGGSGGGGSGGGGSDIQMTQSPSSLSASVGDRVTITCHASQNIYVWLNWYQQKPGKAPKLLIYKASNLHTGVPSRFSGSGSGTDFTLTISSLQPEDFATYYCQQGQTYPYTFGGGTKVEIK
# assay comment: phage ELISA; scFv wells pre-incubated with soluble CD28 (competitor);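 also: crude clonal phage supernatants added to wells pretreated with soluble CD28 in blocking buffer, bound phage read via HRP-linked anti-M13 antibody, reference wells got blocking buffer only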

The cases that follow already have their CD28 scFv signal in presence of CD28 on record.
>  <binder>
MDWCPRHLWNECFA (on phage (pIII fusion)) [Phage-306 clonal phage peptide]

>  <CD28 scFv signal in presence of CD28>
0.17

$$$$
>  <binder>
MDWCPKVMWHYCFA (on phage (pIII fusion)) [Phage-250 clonal phage peptide]

>  <CD28 scFv signal in presence of CD28>
0.252

$$$$
>  <binder>
MTLCLSVDLVHCWY (on phage (pIII fusion)) [Phage-267 clonal phage peptide]

>  <CD28 scFv signal in presence of CD28>
0.093

$$$$
>  <binder>
MDWCPTYLWHVCFS (on phage (pIII fusion)) [Phage-315 clonal phage peptide]

>  <CD28 scFv signal in presence of CD28>
0.16

$$$$
>  <binder>
MDWCPSYLWHECFF (on phage (pIII fusion)) [Phage-237 clonal phage peptide]

>  <CD28 scFv signal in presence of CD28>
0.447

$$$$

Q: Tell me the measured CD28 scFv signal in presence of CD28 of MDWCPRNLWHACFN (on phage (pIII fusion)) [Phage-259 clonal phage peptide] , please.
Result: 0.112

Q: Requested field: CD28 scFv signal in presence of CD28. Item: MDWCPRDLWYQCFN (on phage (pIII fusion)) [Phage-311 clonal phage peptide]
Result: 0.609

Q: Dear colleague, I am looking for the recorded CD28 scFv signal in presence of CD28 of the following binder: MDWCPVFMWNECFN (on phage (pIII fusion)) [Phage-260 clonal phage peptide]
Result: 0.356

Q: Dear colleague, I am looking for the recorded CD28 scFv signal in presence of CD28 of the following binder: MDWCPIYLWAECFN (on phage (pIII fusion)) [Phage-299 clonal phage peptide]
Result: 0.307

Q: Report CD28 scFv signal in presence of CD28 for MDWCPIALWDFCFA (on phage (pIII fusion)) [Phage-288 clonal phage peptide] please.
Result: 0.492

Q: Dear colleague, I am looking for the recorded CD28 scFv signal in presence of CD28 of the following binder: MDWCPRYLWAECFN (on phage (pIII fusion)) [Phage-279 clonal phage peptide]
Result: 1.14

Q: For VPWCLIISGLDCLN (on phage (pIII fusion)) [Phage-231 clonal phage peptide] , what is its reported CD28 scFv signal in presence of CD28?
Result: 0.09

Q: # input binder: MDWCPRYLWPVCFH (on phage (pIII fusion)) [Phage-307 clonal phage peptide] ; wanted: its CD28 scFv signal in presence of CD28
Result: 0.602

Q: I'd like to know its CD28 scFv signal in presence of CD28. The binder in question is MDWCPRHLWHECYS (on phage (pIII fusion)) [Phage-241 clonal phage peptide]
Result: 0.374

Q: Which CD28 scFv signal in presence of CD28 is reported for this binder? MDWCPRSLWFLCFN (on phage (pIII fusion)) [Phage-281 clonal phage peptide]
Result: 1.77

Q: Fill in the blank: the reported CD28 scFv signal in presence of CD28 of MDWCPRSLWDYCFA (on phage (pIII fusion)) [Phage-294 clonal phage peptide] is ____.
Result: 0.235
